Data origin, for the record: ChEMBL document CHEMBL1138266

Tested on: HL-60
method_description: Induction of differention of human HL60 cells into monocytes by NBT reduction assay
Assay type: functional, cell-based
measure: EC50
Put your answer as a value accompanied by its unit after it.

[[record]]
molecule = "C[C@H](CCCC(C)(C)O)C1CC[C@H]2/C(=C/C=C3/C[C@@H](O)C4=CCCO[C@@H]4C3)CCC[C@]12C (some centres not stated)"
measure = "EC50"
assay_result = "100 nM"


Proceeding to the next molecule to report its EC50.
Form field, EC50 with HL-60, item C[C@H](CCCC(C)(C)O)C1CC[C@H]2/C(=C/C=C3\C[C@@H](O)C4=CCCO[C@@H]4C3)CCC[C@]12C (some centres not stated) : 1000 nM
